# ASSAY_REMARKS: Cycloheximide Counterscreen for Small Molecule Inhibitors of Shiga Toxin; note: read at 38.3 µM for the half of the compounds with a filed dose
# RUN_PARAMETERS: cell reporter, cycloheximide protein synthesis inhibition counterscreen
Hit rate of the full screen: of about 300,000 compounds, about 37,000 (12%) were called active. Cut-off read from the data, not from the text of the source: active = max response mostly above about 13% (no sharp cut-off); inactive = mostly below about 14%. The sample holds actives, similar compounds and a random draw of the others, so the mix is not that of the screen.
Hello, when you answer, please use one of the following outcomes: true (active), false (inactive)

Study these solved cases before continuing.
[[record]]
compound = "CCCc1nc2oc3c(OCC)ncnc3c2c2c1COC(C)(C)C2"
class = "false"

[[record]]
compound = "C[C@@H](NC(=O)[C@@H]1Cc2ccccc2CN1)C(=O)NC1CCCC1"
class = "false"

[[record]]
compound = "CCOC(=O)COn1c(=O)c(-c2ccc(OCC)cc2)[n+]([O-])c2ccccc21"
class = "true"

[[record]]
compound = "CCN1C(=O)/C(=C2\\SC(N3CCCCC3)=NC2=O)c2ccccc21"
class = "true"

[[record]]
compound = "CCOC(=O)C1(Cc2ccccc2C)CCCN(C(=O)c2ccc(COC)o2)C1 (centres undefined)"
class = "true"

[[record]]
compound = "NC(=O)C1CC(=O)N(c2ccc(OCC(=O)NCc3ccccc3)cc2)C1 (centres undefined)"
class = "false"

[[record]]
compound = "Cc1ccc(-c2csc(N3CCN(c4cc5c(cc4Cl)nc(-c4ccncc4)n5CCOCCO)CC3)n2)cc1"
class = "false"

[[record]]
compound = "Cc1ccc(CNCc2ccc3c(c2)OCO3)c(C)c1"
class = "false"

[[record]]
compound = "CNC(=O)[C@]1(C(F)(F)F)C[C@H](CCc2ccccc2)CCCO1"
class = "false"

[[record]]
compound = "CC(C)CC(=O)NC(=S)Nc1cc(C(=O)O)ccc1Cl"
class = "false"


What was the test verdict on COc1cc(Cl)c(C)cc1NC(=O)CSc1nnc(-c2ccco2)n1CC(C)C ? false

What was the test verdict on Cc1ccc(C(C[N+](=O)[O-])c2c(C)cc3ccccn23)cc1 (centres undefined) ? false

What was the test verdict on CC(=O)Nc1ccc(S(=O)(=O)Nc2nccc(/C=C/c3ccccc3F)n2)cc1 ? false

What was the test verdict on COc1cc(CNCc2ccc3c(c2)OCO3)c([N+](=O)[O-])cc1OC ? true
